- Target Under Test: BRD4-BD2 (Homo sapiens (Human), UniProt O60885)
- Protocol Details: competitive TR-FRET assay, BET-BD with acetylated peptide ligand
- Format: binding
- Applied Conditions: BRD4-BD2; Table 11 additional modifications; read-out: 4.2 EC50
So basically: is EC50 under 1000 nM? Then satisfied. Not under? Then not satisfied.

Look over these answered cases.
> print(dat)
                                 mol.smiles  classification
1  CC(=O)N1c2ccc(-c3cc4ccccc4[nH]3)cc2[C@H](NC(=O)OC(C)C)C[C@@H]1C   not satisfied
2  CCOC(=O)c1ccc(-c2ccc3c(c2)[C@H](NC(=O)OC(C)C)C[C@H](C)N3C(C)=O)o1   not satisfied
3  CC(=O)N1c2ccc(-c3cccc(-n4cccn4)c3)cc2[C@H](Nc2ccc(Cl)cc2)C[C@@H]1C       satisfied
4  CC(=O)N1c2ccc(-c3ccc4[nH]ccc4c3)cc2[C@H](NC(=O)OC(C)C)C[C@@H]1C   not satisfied
5  CC(=O)Nc1cccc(-c2ccc3c(c2)[C@H](Nc2cccc(OC(F)(F)F)c2)C[C@H](C)N3C(C)=O)c1   not satisfied

In plain terms, does CC(=O)Nc1cccc(-c2ccc3c(c2)[C@H](Nc2ccc(OC(F)(F)F)cc2)C[C@H](C)N3C(C)=O)c1 come in under 1000 nM for EC50?
satisfied

In plain terms, does CC(=O)N1c2ccc(-c3cccc(NC(=O)OC(C)(C)C)c3)cc2[C@H](Nc2ccc(Cl)cc2)C[C@@H]1C come in under 1000 nM for EC50?
satisfied

# credit: patent US11028051B2
